Assignment: determine reported melting point for the given compounds.

Input "Cn1ncc(C(=O)N2CC3(COC3)C2)c1C(=O)Nc1ccn2nc(N3CCOCC3)nc2c1" , output reported melting point.
> 300 °C

Let me know recorded melting point for "CN(C(=O)c1cnn(C)c1C(=O)Nc1ccn2nc(-c3ccccc3)nc2c1)C1CC1" , thanks.
156 to 157 °C

Quote melting point reported for "COCCNC(=O)c1nc2cc(NC(=O)c3c(C(=O)N4CCC4)cnn3C)ccn2n1" please.
159 to 161 °C

Give melting point for the following compound: "CN(CC(F)(F)F)C(=O)c1cnn(C)c1C(=O)Nc1ccn2nc(-c3ccccc3)nc2c1"
> 250 °C

Indicate the recorded melting point value for this compound: "Cn1ncc(C(=O)N2CCC2)c1C(=O)Nc1ccn2nc(N3CCCC3)nc2c1"
> 250 °C

Read the entry "CN(CCF)c1nc2cc(NC(=O)c3c(C(=O)N4CCC4)cnn3C)ccn2n1" and write its reported melting point.
236 to 237 °C

Answer with the recorded melting point for the compound listed here: "Cn1ncc(C(=O)N2CCC2)c1C(=O)Nc1ccn2nc(Br)nc2c1"
> 250 °C

Quickly give me recorded melting point for "Cn1ncc(C(=O)N2CC(F)C2)c1C(=O)Nc1ccn2nc(-c3cccnc3)nc2c1"
247 to 249 °C

---

Please respond with reported melting point for every item in the list.

Specify melting point for "Cn1ncc(C(=O)N2CCOCC2)c1C(=O)Nc1ccn2nc(-c3ccnc(F)c3)nc2c1" and stop.
> 280 °C

Fill in melting point for record "Cn1ncc(C(=O)N2CCC2)c1C(=O)Nc1ccn2nc(-c3cccnc3)nc2c1"
253 to 254 °C

Given the molecule "Cc1cc(-c2nc3cc(NC(=O)c4c(C(=O)N5CCC5)cnn4C)ccn3n2)ccn1" , write its reported melting point.
210 to 211 °C

Name the recorded melting point of the item "COC1CN(C(=O)c2cnn(C)c2C(=O)Nc2ccn3nc(-c4ccccc4)nc3c2)C1" in your answer.
269 to 270 °C

Item "Cn1ncc(C(=O)N2CCC2)c1C(=O)Nc1ccn2nc(-c3ccnc(F)c3)nc2c1" : provide melting point
> 280 °C

Quote melting point reported for "Cn1ncc(C(=O)N[C@@H]2CCOC2)c1C(=O)Nc1ccn2nc(-c3ccccc3)nc2c1" please.
> 250 °C

Give recorded melting point. "Cn1ncc(C(=O)N2CCOCC2)c1C(=O)Nc1ccn2nc(-c3cccnc3F)nc2c1"
267 to 269 °C

Tell me its melting point given "CCNC(=O)c1nc2cc(NC(=O)c3c(C(=O)N4CCC4)cnn3C)ccn2n1" as the entry.
217 to 229 °C

---

measurement_label: melting point

Kindly indicate its recorded melting point. Item: CN(C(=O)c1cnn(C)c1C(=O)Nc1ccn2nc(N3CCCC3)nc2c1)C1CC1 [Example 123]
274.3 °C

Provide only the value of recorded melting point for CN(CCF)C(=O)c1cnn(C)c1C(=O)Nc1ccn2nc(-c3cccnc3)nc2c1 [Example 56]
200 to 208 °C

Recall and state the measured melting point for Cn1ncc(C(=O)N2CCS(=O)(=O)CC2)c1C(=O)Nc1ccn2nc(-c3ccccc3)nc2c1 [Example 22] .
> 250 °C

---

- system: human PDE10A full length (Homo sapiens, UniProt Q9Y233)
- Sequence (Q9Y233 1-779 isoform Q9Y233-1): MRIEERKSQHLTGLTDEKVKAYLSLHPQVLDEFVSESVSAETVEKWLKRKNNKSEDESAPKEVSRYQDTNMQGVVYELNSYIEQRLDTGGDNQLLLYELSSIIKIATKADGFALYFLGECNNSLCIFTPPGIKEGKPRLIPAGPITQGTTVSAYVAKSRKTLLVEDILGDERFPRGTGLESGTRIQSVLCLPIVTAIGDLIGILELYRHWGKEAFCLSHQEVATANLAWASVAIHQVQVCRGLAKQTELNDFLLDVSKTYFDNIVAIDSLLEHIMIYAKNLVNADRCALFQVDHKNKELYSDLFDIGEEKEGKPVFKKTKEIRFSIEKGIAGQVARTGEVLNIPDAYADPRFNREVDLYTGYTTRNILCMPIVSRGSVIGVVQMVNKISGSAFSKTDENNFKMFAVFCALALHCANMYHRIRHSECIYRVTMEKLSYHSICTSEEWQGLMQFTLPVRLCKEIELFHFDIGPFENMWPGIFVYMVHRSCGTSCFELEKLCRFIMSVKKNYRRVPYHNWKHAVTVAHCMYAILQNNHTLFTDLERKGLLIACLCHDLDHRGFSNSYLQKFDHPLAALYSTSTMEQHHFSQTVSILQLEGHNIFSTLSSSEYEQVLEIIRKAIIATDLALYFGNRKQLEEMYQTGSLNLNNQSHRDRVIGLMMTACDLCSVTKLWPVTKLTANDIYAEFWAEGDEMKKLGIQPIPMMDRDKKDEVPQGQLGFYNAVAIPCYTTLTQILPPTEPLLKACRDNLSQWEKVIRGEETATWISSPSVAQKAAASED
pIC50: −log10 of the molar value.
Binary classification by pIC50, with 9 as an inclusive lower bound for criterion met; all other cases are criterion not met.

Please tell me: is the molecule "CC(C)c1nc2cc(NC(=O)c3c(C(=O)N4CC(F)C4)cnn3C)ccn2n1" at or over 9 in terms of pIC50?
criterion not met

Item "Cn1ncc(C(=O)N2CCCC2)c1C(=O)Nc1ccn2nc(-c3ccccc3)nc2c1" with pIC50 of 9 or above?
criterion met

Please indicate if the recorded pIC50 for "CN(CCF)c1nc2cc(NC(=O)c3c(C(=O)N4CC(F)C4)cnn3C)ccn2n1" meets or exceeds 9.
criterion not met

Decide: is the reported value of pIC50 for "CN(C)C(=O)c1cnn(C)c1C(=O)Nc1ccn2nc(N(C)CCF)nc2c1" equal to or greater than 9?
criterion not met

Does pIC50 meet or surpass 9 for "COC(=O)CN(C)C(=O)c1cnn(C)c1C(=O)Nc1ccn2nc(N3CCOCC3)nc2c1" ?
criterion not met

Reported pIC50 reaches at least 9 for "COC1CN(C(=O)c2cnn(C)c2C(=O)Nc2ccn3nc(-c4ccccc4)nc3c2)C1" ?
criterion not met

Decide: is the reported value of pIC50 for "CNC(=O)c1cnn(C)c1C(=O)Nc1ccn2nc(-c3ccccc3)nc2c1" equal to or greater than 9?
criterion not met

Please tell me: is the molecule "CN(C(=O)c1cnn(C)c1C(=O)Nc1ccn2nc(N(C)C3CC3)nc2c1)C1CC1" at or over 9 in terms of pIC50?
criterion met

Textbook exercise: given the entry "CCNC(=O)c1nc2cc(NC(=O)c3c(C(=O)N4CCC4)cnn3C)ccn2n1" , state whether its pIC50 is greater than or equal to 9.
criterion not met

Check if pIC50 >= 9 (inclusive). Item: "CN(C)c1nc2cc(NC(=O)c3c(C(=O)N4CCCC4)cnn3C)ccn2n1"
criterion not met

Reported pIC50 reaches at least 9 for "Cn1ncc(C(=O)N2CCOCC2)c1C(=O)Nc1ccn2nc(-c3ccnc(F)c3)nc2c1" ?
criterion not met
